molecular target: GST tagged truncated human mutant G2019S LRRK2 (Homo sapiens (Human), UniProt Q5S007, G2019S); assay: LRRK2 Km ATP LanthaScreen Assay; assay type: biochemical; conditions: G2019S LRRK2, 134 μM ATP (Km ATP), mean values; read-out: LRRK2 pIC50 (converted)
Sequence (Q5S007 970-2527 G2019S): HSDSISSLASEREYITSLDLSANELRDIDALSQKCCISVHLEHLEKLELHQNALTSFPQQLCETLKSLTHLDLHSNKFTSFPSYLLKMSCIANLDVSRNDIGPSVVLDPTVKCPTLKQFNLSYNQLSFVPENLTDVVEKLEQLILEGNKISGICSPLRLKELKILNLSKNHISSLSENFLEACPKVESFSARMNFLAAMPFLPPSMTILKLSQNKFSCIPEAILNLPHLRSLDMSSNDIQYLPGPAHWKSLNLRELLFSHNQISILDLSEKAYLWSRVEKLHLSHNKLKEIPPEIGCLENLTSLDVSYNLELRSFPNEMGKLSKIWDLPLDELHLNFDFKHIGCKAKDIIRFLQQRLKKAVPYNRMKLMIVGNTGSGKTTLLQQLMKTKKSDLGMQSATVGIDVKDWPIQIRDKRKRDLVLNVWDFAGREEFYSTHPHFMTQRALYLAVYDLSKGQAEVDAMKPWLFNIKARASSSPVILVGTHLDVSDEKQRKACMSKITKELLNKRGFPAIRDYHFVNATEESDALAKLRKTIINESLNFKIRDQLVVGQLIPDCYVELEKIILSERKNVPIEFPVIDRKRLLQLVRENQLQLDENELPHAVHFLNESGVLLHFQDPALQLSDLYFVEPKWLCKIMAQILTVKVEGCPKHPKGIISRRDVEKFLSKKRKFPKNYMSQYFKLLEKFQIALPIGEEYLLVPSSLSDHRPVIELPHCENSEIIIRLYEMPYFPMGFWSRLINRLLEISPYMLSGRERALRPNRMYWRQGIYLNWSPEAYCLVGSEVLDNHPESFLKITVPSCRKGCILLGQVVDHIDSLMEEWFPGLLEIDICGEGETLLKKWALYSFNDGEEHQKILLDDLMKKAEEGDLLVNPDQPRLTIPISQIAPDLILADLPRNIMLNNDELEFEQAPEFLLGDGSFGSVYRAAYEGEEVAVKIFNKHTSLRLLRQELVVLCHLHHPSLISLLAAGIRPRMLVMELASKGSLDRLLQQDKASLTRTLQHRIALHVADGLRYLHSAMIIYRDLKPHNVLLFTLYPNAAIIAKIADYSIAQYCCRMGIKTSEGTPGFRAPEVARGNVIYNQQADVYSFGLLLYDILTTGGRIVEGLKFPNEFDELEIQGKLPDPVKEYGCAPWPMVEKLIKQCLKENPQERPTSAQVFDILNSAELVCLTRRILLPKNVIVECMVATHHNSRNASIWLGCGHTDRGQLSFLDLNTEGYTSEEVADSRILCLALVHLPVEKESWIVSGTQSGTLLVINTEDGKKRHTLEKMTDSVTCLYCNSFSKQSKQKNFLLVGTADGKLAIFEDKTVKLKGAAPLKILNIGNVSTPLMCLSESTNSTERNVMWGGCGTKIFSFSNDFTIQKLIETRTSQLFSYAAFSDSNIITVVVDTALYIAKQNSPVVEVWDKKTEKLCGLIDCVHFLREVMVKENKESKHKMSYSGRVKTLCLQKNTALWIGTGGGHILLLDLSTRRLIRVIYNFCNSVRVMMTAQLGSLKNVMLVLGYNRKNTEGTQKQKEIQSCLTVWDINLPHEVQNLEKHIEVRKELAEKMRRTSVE
PROPERTY NAME: IC50 (nM)
Numbers only, in nM.

Example compounds with recorded IC50:
{"COMPOUND": "CC(C)(O)CN1CCC(c2cc3nc(Nc4cnn(C5CC5)c4)ncc3cc2Cl)C1 (single isomer, unassigned) [Ex-1.9]", "OBSERVED RESULT": 30.2}
{"COMPOUND": "CC1(n2ncc(Nc3ncc4cc(Cl)c(C5CCN(C6COC6)C5)cc4n3)c2Cl)CC1 (single isomer, unassigned) [Ex-4.26]", "OBSERVED RESULT": 4.9}
{"COMPOUND": "C[C@@]1(N2CCC(c3cc4nc(Nc5cnn(C6CC6)c5Cl)ncc4cc3Cl)CC2)COC[C@@H]1O (single isomer, unassigned) [Ex-1.8]", "OBSERVED RESULT": 1.55}
{"COMPOUND": "Cc1c(Nc2ncc3cc(Cl)c(C4CCN(C5COC5)CC4)cc3n2)cnn1C1CC1(F)F (single isomer, unassigned) [Ex-2.73]", "OBSERVED RESULT": 0.955}
{"COMPOUND": "CCn1ncc(Nc2ncc3cc(Cl)c(C4CC45CC5)cc3n2)c1C (single isomer, unassigned) [Ex-1.2]", "OBSERVED RESULT": 186}

compound Cc1c(Nc2ncc3cc(Cl)c(C4CCN(CC(O)Cc5ccccc5)CC4)cc3n2)cnn1C1CC1 (single isomer, unassigned) [Ex-4.219] , IC50 observed: 4.68

###

biological target: GST tagged truncated human mutant G2019S LRRK2 (Homo sapiens (Human), UniProt Q5S007, G2019S); assay: LRRK2 Km ATP LanthaScreen Assay; format: biochemical; conditions: G2019S LRRK2, 134 μM ATP (Km ATP), mean values
PROPERTY NAME: LRRK2 pIC50
One number for each entry.

{"COMPOUND": "Cn1ncc(Nc2ncc3cc(Cl)c([C@H]4CCN([C@H]5COC[C@H]5O)C[C@@H]4F)cc3n2)c1C1CC1 (single isomer, unassigned) [Ex-4.242]", "LRRK2 pIC50": 7.67}
{"COMPOUND": "Cc1c(Nc2ncc3cc(Cl)c(C4CCN(C5CC[C@@H]6C[C@H]56)CC4)cc3n2)cnn1C1CC1 (stereo partly drawn) [Ex-4.172]", "LRRK2 pIC50": 7.53}

# evaluate next
The compound listed as CC1OCC1N1CC[C@H](c2cc3nc(Nc4cnn(CC(C)(C)O)c4Cl)ncc3cc2Cl)[C@@H](F)C1 (single isomer, unassigned) [Ex-4.73] shows LRRK2 pIC50 equal to 9.13

###

Record form. Attribute: LRRK2 pIC50. Fill in for each entry.
target: GST tagged truncated human mutant G2019S LRRK2 (Homo sapiens (Human), UniProt Q5S007, G2019S); assay: LRRK2 Km ATP LanthaScreen Assay; format: biochemical; conditions: G2019S LRRK2, 134 μM ATP (Km ATP), mean values
One number for each entry.

Illustrative cases are given below, each with its answer.
{"COMPOUND": "N#CC1COCC1N1CCC(c2cc3nc(Nc4cnn(C5CC5)c4Cl)ncc3cc2Cl)CC1 (single isomer, unassigned) [Ex-4.103]", "LRRK2 pIC50": 8.49}
{"COMPOUND": "CC1CC(c2cc3nc(Nc4cnn(C5CC5)c4Cl)ncc3cc2Cl)CCN1C1COC1 (single isomer, unassigned) [Ex-4.107]", "LRRK2 pIC50": 8.52}
{"COMPOUND": "Cc1c(Nc2ncc3cc(Cl)c(C4CCN(C[C@@H](O)c5ccc(F)c(F)c5)CC4)cc3n2)cnn1C1CC1", "LRRK2 pIC50": 8.76}

Here is the next item to consider.
response.value for Cc1c(Nc2ncc3cc(C(F)(F)F)c(C4CCN([C@@]5(C)COC[C@H]5O)CC4)cc3n2)cnn1C1CC1 (single isomer, unassigned) (field: LRRK2 pIC50) = 9.19

###

target: GST tagged truncated human mutant G2019S LRRK2 (Homo sapiens (Human), UniProt Q5S007, G2019S); experiment: LRRK2 Km ATP LanthaScreen Assay; type: biochemical; details: G2019S LRRK2, 134 μM ATP (Km ATP), mean values
Checkbox rule: LRRK2 pIC50 lower than 8 = YES; LRRK2 pIC50 not lower than 8 = NO.

Record Cc1cc2cnc(Nc3cnn(C4CC4(F)F)c3Cl)nc2cc1[C@@H]1CCN([C@@]2(C)COC[C@H]2O)C[C@H]1F (single isomer, unassigned) : is its LRRK2 pIC50 strictly below 8?
NO

Below 8 on LRRK2 pIC50? Entry Cc1cc2cnc(Nc3cnn(C)c3Cl)nc2cc1C1CCN([C@]2(C)COC[C@@H]2O)CC1 (single isomer, unassigned)
YES

Consider CO[C@H]1COC[C@H]1N1CC[C@@H](c2cc3nc(Nc4cnn(C5CC5)c4Cl)ncc3cc2C)[C@H](F)C1 (single isomer, unassigned) [Ex-4.261] . Does its LRRK2 pIC50 lie strictly below 8?
YES

Does Cc1c(Nc2ncc3cc(Cl)c([C@@H]4CCN([C@H]5COC[C@H]5O)C[C@H]4F)cc3n2)cnn1C12CC(C1)C2 (single isomer, unassigned) have LRRK2 pIC50 strictly under 8?
NO

Below 8 on LRRK2 pIC50? Entry Cc1c(Nc2ncc3cc(Cl)c(C4CCN(C[C@@H](O)c5cccc(F)c5F)CC4)cc3n2)cnn1C1CC1
NO

###

target: GST tagged truncated human mutant G2019S LRRK2 (Homo sapiens (Human), UniProt Q5S007, G2019S); assay: LRRK2 Km ATP LanthaScreen Assay; format: biochemical; settings: G2019S LRRK2, 134 μM ATP (Km ATP), mean values
PROPERTY NAME: LRRK2 pIC50
Answers are plain numbers.

Example compounds with recorded LRRK2 pIC50:
{"COMPOUND": "CC1OCC1N1CCC(c2cc3nc(Nc4cnn(CC(C)(C)O)c4Cl)ncc3cc2Cl)CC1 (single isomer, unassigned) [Ex-4.75]", "LRRK2 pIC50": 8.14}
{"COMPOUND": "Cc1cc(Nc2ncc3cc(Cl)c(C4CCN(C5CS(=O)(=O)C5)CC4)cc3n2)sn1", "LRRK2 pIC50": 9.09}
{"COMPOUND": "Cc1c(Nc2ncc3cc(Cl)c(C4CCN(C5CCC(CC#N)C5)CC4)cc3n2)cnn1C1CC1 (single isomer, unassigned) [Ex-4.171]", "LRRK2 pIC50": 8.51}
{"COMPOUND": "CC(C)(O)Cn1ncc(Nc2ncc3cc(Cl)c([C@@H]4CCN(C5(C)COC5)C[C@H]4F)cc3n2)c1Cl (single isomer, unassigned)", "LRRK2 pIC50": 8.79}

Here's the next entry for you.
// LRRK2 pIC50 lookup, compound = CC(C)(Cn1ncc(Nc2ncc3cc(Cl)c(C4CCN(C5COC5)CC4)cc3n2)c1Cl)OC(F)F , result: 9.15

###

molecular target: GST tagged truncated human mutant G2019S LRRK2 (Homo sapiens (Human), UniProt Q5S007, G2019S); test: LRRK2 Km ATP LanthaScreen Assay; assay type: biochemical; details: G2019S LRRK2, 134 μM ATP (Km ATP), mean values
Please respond with reported LRRK2 pIC50 for every item in the list.
One number for each entry.

{"COMPOUND": "N#Cc1cc2cnc(Nc3cnn(C4CC4)c3Cl)nc2cc1C1CCN(C2COC2)CC1 [Ex-6.3]", "LRRK2 pIC50": 9.07}

For each entry beneath this line, provide reported LRRK2 pIC50.
1. Cc1cc2cnc(Nc3cnn(CC(C)(C)O)c3C)nc2cc1[C@@H]1CCN(C2COC2)C[C@H]1F (single isomer, unassigned) [Ex-5.5]
2. Cn1nc(C(F)(F)F)cc1Nc1ncc2cc(Cl)c([C@@H]3CCN([C@@]4(C)COC[C@H]4O)C[C@H]3F)cc2n1 (single isomer, unassigned) [Ex-4.252]
3. CC1(O)CCC(c2cc3nc(Nc4cnn(C5CC5)c4Cl)ncc3cc2Cl)CC1 (centres unmarked) [Ex-1.17]
4. C[C@@]1(N2CC[C@@H](c3cc4nc(Nc5cnn(C6CC6(F)F)c5Cl)ncc4cc3Cl)[C@H](F)C2)COC[C@@H]1O (single isomer, unassigned) [Ex-4.230]
5. Cc1c(Nc2ncc3cc(Cl)c(C4CCN(C[C@@H](O)c5ccccc5F)CC4)cc3n2)cnn1C1CC1 [Ex-4.202]
6. Cc1c(Nc2ncc3cc(Cl)c(C4CCN(C5CCC(CC#N)C5)CC4)cc3n2)cnn1C1CC1 (single isomer, unassigned) [Ex-4.170]
7. C[C@@]1(N2CCC(c3cc4nc(Nc5ccnn5C5CC5(F)F)ncc4cc3Cl)CC2)COC[C@@H]1O (single isomer, unassigned) [Ex-2.87]
8. Cc1c(Nc2ncc3cc(Cl)c(C4CCN(C[C@H](O)c5cccc(F)c5F)CC4)cc3n2)cnn1C1CC1 [Ex-4.206]

1. 8.37
2. 6.61
3. 8.58
4. 9.13
5. 8.47
6. 8.81
7. 8.04
8. 7.90

compound Cc1c(Nc2ncc3cc(Cl)c(C4CCN(C[C@H](O)c5cccc(Cl)c5)CC4)cc3n2)cnn1C1CC1 [Ex-4.194] , LRRK2 pIC50 observed: 8.28
